Items are presented alongside their recorded pIC50.
target: T1, integrin αvβ3 (vitronectin receptor), purified and immobilized on microtiter wells (UniProt P06756 31-1048; P05106 27-788); assay: solid-phase competition: peptide against vitronectin (VN) on immobilized αvβ3; individual assay
T1 construct: Purified integrin coated at 50 ng per well; also called αvβ3 receptor; vitronectin receptor (αvβ3)
T1 sequence (P06756 31-1048, form in doubt, chain 1 of 2): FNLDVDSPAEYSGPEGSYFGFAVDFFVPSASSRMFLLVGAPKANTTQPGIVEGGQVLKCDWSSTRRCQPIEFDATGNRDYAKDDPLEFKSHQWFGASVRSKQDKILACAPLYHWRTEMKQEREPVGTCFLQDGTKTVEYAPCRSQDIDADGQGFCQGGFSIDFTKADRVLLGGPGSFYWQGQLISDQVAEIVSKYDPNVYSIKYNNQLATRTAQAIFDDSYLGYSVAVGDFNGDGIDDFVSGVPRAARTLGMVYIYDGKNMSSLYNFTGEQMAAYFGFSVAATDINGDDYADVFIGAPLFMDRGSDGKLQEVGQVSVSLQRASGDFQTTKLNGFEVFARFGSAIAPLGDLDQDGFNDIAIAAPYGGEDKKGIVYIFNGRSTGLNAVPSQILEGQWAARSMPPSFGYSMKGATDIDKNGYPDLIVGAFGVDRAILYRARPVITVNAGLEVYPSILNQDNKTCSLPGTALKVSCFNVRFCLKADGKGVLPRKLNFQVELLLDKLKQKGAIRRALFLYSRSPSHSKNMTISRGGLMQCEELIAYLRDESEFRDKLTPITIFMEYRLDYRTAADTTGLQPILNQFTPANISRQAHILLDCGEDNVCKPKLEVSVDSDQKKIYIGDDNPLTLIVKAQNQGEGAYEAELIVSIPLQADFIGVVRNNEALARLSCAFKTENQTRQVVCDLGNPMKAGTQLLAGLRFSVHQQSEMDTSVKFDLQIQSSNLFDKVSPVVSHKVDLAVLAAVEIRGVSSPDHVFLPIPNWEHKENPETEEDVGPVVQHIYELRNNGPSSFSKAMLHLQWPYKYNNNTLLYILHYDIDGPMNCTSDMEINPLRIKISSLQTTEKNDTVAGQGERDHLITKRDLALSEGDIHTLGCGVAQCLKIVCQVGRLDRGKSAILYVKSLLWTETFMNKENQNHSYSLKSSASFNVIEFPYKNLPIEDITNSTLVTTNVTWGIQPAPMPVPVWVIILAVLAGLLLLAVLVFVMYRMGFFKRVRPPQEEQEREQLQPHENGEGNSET
T1 sequence (P05106 27-788, form in doubt, chain 2 of 2): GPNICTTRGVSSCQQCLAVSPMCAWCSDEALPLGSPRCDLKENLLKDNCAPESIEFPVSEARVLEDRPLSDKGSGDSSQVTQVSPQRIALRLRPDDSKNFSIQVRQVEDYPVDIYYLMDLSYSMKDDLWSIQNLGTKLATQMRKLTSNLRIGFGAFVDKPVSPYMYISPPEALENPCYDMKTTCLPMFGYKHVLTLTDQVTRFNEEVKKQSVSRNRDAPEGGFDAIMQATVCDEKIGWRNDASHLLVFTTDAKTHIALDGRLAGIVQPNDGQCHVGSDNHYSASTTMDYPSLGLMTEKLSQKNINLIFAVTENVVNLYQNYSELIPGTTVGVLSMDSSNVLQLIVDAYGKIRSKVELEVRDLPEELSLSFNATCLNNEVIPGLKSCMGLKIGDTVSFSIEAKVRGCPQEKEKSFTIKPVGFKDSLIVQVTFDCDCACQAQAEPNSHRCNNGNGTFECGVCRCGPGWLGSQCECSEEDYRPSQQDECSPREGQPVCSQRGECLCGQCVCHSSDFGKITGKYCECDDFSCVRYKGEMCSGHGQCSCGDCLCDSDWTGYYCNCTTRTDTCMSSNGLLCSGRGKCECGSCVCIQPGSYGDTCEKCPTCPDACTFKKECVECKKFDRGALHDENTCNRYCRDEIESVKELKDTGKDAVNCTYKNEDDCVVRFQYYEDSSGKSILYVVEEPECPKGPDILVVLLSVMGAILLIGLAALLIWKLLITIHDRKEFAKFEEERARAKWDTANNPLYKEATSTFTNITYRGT
pIC50: −log10 of the molar value.

Before answering, review these 3 worked examples.
binder	recordedMetric	testValue
GVVRNNEALARLS (Linear synthetic peptide) [peptide 62503, GVVRNNEALARLS (linear, αv-derived amino acid residues 655-667)]	pIC50	< 4.00
TDVNGDGRHDL (Linear synthetic peptide) [peptide 62502, TDVNGDGRHDL (linear, αIIb-derived amino acid residues 296-306)]	pIC50	< 4.00
TRQVVCDLGNPM (Linear synthetic peptide) [peptide 62411, TRQVVCDLGNPM (linear, αv-derived amino acid residues 676-687)]	pIC50	< 4.00

Now, please, on to the next binder.
Determine its reported pIC50: YTAECKPQVTRGDVF (Linear synthetic peptide) [peptide 62880, YTAECKPQVTRGDVF (linear, VN-derived amino acid residues 35-49)]
6.30

Hello, the source for this data is patent EP0951295B1, in case you need it.
